Sourced from patent US20210087281A1

Target: T1, native mouse MET on living cells (mouse, UniProt P16056 25-1379)
T1 construct: whole, on cells; also called Mouse cells (MLP29); mouse epithelial cells expressing MET
Assay: flow cytometry, MLP29 cells

{"Binder": "71D6 chimeric llama-human IgG1 mAb (antibody, V domains shown, llama VH on human IgG1 CH1-CH2-CH3, llama VL on human lambda CL) VH: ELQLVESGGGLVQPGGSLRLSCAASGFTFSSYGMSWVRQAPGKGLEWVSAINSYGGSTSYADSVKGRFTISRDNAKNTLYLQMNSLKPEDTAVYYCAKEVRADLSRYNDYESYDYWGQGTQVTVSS VL: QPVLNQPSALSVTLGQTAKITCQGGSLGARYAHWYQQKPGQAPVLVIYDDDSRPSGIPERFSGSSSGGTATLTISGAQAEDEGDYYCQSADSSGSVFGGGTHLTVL", "EC50 / nM": 0.383}
